# System: Normal Kunming (KM) mice
# method_description: multiple OGTT (mOGTT): hypoglycemic duration after a single administration
# Format: in vivo
# measurement_context: monomeric peptides, single injection at the same dose (1.126 nmol), subcutaneous
parameter_measured: Hypoglycemic (days)

| substance | recorded_measurement |
| --- | --- |
| His-Ala-Glu-Gly-Thr-Phe-Thr-Ser-Asp-Val-Ser-Cys-Tyr-Leu-Glu-Gly-Gln-Ala-Ala-Lys[N-ϵ-(N-α-Palmitoyl)]-Glu-Phe-Ile-Ala-Trp-Leu-Val-Arg-Gly-Arg-Gly-OH (HAEGTFTSDVSCYLEGQAAXEFIAWLVRGRG; not fully specified; palmitoyl on Lys side chain; C-terminal acid; Sequence is synthesized; (20)..(20) Xaa is 26Lys[N-e-(N-a-palmitoyl-L-g-glutamyl)]; (31)..(31) C-terminal) [G4 series 34] | 4 |
| His-Ala-Glu-Gly-Thr-Phe-Thr-Ser-Asp-Val-Cys-Ser-Tyr-Leu-Glu-Gly-Gln-Ala-Ala-Lys[N-ϵ-(N-α-Palmitoyl)]-Glu-Phe-Ile-Ala-Trp-Leu-Val-Arg-Gly-Arg-Gly-NH2 (HAEGTFTSDVCSYLEGQAAXEFIAWLVRGRG; palmitoyl on Lys; C-terminal amide; Sequence is synthesized; (20)..(20) Xaa is 26Lys[N-e-(N-a-palmitoyl-L-g-glutamyl)]; (31)..(31) N-terminal) [G4 series 25] | 5 |

// data source = patent US20240150423A1
